Molecular target: natural β-amyloid peptide β-AP1-40 (human)
Sequence (peptide, as listed by the source): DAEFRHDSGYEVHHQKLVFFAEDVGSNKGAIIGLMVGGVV
Experiment: cell-based or functional assay
Numbered stars: 1 amine (or outer) side, 2 acyl side, 3 side chain; on linkers, the order of the positions; unused ones are H or OH. Square brackets hold non-standard residues; d marks the D form. * marks the point of attachment. Cholyl = C[C@H](CCC(=O)*)[C@H]1CC[C@H]2[C@@H]3[C@H](O)C[C@@H]4C[C@H](O)CC[C@]4(C)[C@H]3C[C@H](O)[C@]12C; Adp = aminoethyldibenzofuranylpropanoic acid, O=C(CCc1cccc2c1oc1c(CCN[*:1])cccc12)[*:2]; NMeL = CN[C@@H](CC(C)C)C(=O)O
Measured Quantity: % Iext'n; seeded extension assay; 25 mole % (%)
Record the value in %, omitting the unit from your answer.

q: Given the binder Cholyl-AVFFA-OH (SMILES CC(C)[C@H](NC(=O)[C@H](C)NC(=O)CC[C@@H](C)[C@H]1CC[C@H]2[C@@H]3[C@H](O)C[C@@H]4C[C@H](O)CC[C@]4(C)[C@H]3C[C@H](O)[C@]12C)C(=O)N[C@@H](Cc1ccccc1)C(=O)N[C@@H](Cc1ccccc1)C(=O)N[C@@H](C)C(=O)O) [CA-AVFFA-oh] , what is its reported % Iext'n; seeded extension assay; 25 mole %?
a: 44

q: Given the binder H-DDII[NMeL]VEH[Adp]LKLVFF-OH (SMILES CC[C@H](C)[C@H](NC(=O)[C@H](CC(=O)O)NC(=O)[C@@H](N)CC(=O)O)C(=O)N[C@H](C(=O)N(C)[C@@H](CC(C)C)C(=O)N[C@H](C(=O)N[C@@H](CCC(=O)O)C(=O)N[C@@H](Cc1c[nH]cn1)C(=O)NCCc1cccc2c1oc1c(CCC(=O)N[C@@H](CC(C)C)C(=O)N[C@@H](CCCCN)C(=O)N[C@@H](CC(C)C)C(=O)N[C@H](C(=O)N[C@@H](Cc3ccccc3)C(=O)N[C@@H](Cc3ccccc3)C(=O)O)C(C)C)cccc12)C(C)C)[C@@H](C)CC) [h-DDII(N-Me-Leu)VEH(Adp)-LKLVFF-oh] , what is its reported % Iext'n; seeded extension assay; 25 mole %?
a: 7
